assay_remarks: In vivo plasma and liver concentrations, 20 mg/kg intraperitoneal
run_parameters: female, C57BL/6J, mouse, ip, 20 mg/kg

molecule	concentration at 30 min (µM)
Clc1cccc(-c2c[nH]c3nccc(N4CCOCC4)c23)c1	7.1
CC1(N)CCN(c2ncnc3[nH]cc(-c4cccc(Cl)c4)c23)CC1	1.4
CC(CO)CN(C)c1ncnc2[nH]cc(-c3cccc(Cl)c3)c12 (stereo not drawn)	1.8
CNC1CCN(c2ncnc3[nH]cc(-c4cccc(Cl)c4)c23)CC1	2.2
CC(=O)NC1CCN(c2ncnc3[nH]cc(-c4cccc(Cl)c4)c23)CC1	8.7
OCCCNc1ncnc2[nH]cc(-c3cccc(Cl)c3)c12	4.5

* * *

assay_remarks: Caco-2 permeability
Assay type: in vitro ADME
run_parameters: human, Caco-2
measured_quantity: Papp B→A (×10⁻⁶ cm/s)

input_smiles	measured_quantity	recorded_result
OC1CCN(c2ncnc3[nH]cc(-c4cccc(Cl)c4)c23)CC1	Papp B→A	294
Clc1cccc(-c2c[nH]c3nccc(N4CCOCC4)c23)c1	Papp B→A	7
Clc1cccc(-c2c[nH]c3ncnc(N4CCOCC4)c23)c1	Papp B→A	35.7
NC(=O)c1cccc(-c2c[nH]c3ncnc(N4CCOCC4)c23)c1	Papp B→A	136

* * *

test_target: UniProtKB Q5S007
Sequence (Q5S007 whole entry, species assumed): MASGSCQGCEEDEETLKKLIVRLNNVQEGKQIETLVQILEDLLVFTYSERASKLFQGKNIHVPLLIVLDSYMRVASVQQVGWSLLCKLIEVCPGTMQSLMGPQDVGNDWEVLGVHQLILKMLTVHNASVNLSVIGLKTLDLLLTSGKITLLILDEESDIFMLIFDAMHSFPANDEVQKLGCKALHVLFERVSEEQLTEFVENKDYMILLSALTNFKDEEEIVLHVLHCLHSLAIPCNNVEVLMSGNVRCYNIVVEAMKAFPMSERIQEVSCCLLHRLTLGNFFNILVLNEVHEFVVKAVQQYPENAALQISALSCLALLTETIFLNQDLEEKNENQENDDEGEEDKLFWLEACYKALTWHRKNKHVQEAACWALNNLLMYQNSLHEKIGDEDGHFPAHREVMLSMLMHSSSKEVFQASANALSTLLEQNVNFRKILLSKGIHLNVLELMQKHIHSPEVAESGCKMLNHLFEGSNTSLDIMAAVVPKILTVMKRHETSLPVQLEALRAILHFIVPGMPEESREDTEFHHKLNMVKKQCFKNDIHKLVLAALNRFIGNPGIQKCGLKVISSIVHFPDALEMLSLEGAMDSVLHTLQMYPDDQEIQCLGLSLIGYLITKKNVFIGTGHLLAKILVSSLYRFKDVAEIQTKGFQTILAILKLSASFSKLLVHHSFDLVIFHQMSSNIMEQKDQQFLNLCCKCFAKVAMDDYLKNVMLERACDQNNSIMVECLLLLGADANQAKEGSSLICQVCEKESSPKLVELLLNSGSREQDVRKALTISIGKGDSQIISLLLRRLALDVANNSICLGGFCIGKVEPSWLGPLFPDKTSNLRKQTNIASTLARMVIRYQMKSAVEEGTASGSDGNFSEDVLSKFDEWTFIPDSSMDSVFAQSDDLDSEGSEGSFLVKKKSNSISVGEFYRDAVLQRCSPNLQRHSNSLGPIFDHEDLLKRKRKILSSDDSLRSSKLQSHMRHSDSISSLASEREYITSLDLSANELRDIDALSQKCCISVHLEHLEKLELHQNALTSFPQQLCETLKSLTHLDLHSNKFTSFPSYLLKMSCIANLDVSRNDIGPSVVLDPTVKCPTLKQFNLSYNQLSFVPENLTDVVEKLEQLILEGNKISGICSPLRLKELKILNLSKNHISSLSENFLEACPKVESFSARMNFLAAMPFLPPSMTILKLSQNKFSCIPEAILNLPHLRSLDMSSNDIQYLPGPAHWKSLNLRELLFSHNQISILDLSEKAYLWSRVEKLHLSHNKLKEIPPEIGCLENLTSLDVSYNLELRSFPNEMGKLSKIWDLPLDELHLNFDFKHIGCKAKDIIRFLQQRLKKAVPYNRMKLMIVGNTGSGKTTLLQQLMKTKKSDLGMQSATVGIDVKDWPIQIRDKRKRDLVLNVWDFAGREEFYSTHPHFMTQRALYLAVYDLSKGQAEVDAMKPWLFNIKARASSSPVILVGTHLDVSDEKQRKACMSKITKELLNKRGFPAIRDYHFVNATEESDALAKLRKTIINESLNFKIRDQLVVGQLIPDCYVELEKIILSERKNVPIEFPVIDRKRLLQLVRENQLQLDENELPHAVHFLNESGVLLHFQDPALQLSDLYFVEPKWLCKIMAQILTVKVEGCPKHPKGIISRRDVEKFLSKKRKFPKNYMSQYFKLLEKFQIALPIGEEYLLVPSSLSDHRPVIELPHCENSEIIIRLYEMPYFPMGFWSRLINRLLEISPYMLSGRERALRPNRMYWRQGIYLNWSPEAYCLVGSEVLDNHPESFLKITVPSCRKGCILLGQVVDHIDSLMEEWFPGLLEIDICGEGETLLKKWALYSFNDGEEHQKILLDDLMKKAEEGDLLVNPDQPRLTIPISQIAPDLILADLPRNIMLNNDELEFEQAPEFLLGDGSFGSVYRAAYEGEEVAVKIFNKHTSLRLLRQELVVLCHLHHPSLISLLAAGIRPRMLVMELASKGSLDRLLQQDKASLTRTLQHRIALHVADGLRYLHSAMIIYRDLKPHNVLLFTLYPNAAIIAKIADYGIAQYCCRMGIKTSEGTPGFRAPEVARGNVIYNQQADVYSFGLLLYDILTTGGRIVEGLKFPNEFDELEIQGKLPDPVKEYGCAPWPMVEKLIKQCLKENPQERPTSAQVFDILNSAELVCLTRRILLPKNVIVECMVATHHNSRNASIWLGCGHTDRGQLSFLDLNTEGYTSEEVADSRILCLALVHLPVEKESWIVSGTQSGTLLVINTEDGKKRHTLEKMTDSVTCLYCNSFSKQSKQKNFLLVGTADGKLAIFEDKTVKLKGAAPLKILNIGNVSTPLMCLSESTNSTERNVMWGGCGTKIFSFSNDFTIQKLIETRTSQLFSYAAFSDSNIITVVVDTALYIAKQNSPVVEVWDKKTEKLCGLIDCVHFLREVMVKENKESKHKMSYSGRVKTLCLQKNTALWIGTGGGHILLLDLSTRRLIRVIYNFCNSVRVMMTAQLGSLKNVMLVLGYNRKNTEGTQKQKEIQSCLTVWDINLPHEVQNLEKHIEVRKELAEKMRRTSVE
assay_remarks: NanoBRET intracellular kinase assay, LRRK2
run_parameters: transfected HEK293 cells, 2 h
measured_quantity: IC50

molecule	measured_quantity	recorded_result
Fc1cccc(-c2c[nH]c3ncnc(N4CCOCC4)c23)c1	IC50	≤ 1000 nM
Cc1cccc(-c2c[nH]c3ncnc(N4CCOCC4)c23)c1	IC50	≤ 1000 nM
Clc1cccc(-c2c[nH]c3nccc(N4CCOCC4)c23)c1	IC50	≤ 1000 nM
NC(=O)c1cccc(-c2c[nH]c3ncnc(N4CCOCC4)c23)c1	IC50	≥ 2000 nM
Clc1cccc(-c2c[nH]c3ncnc(N4CCOCC4)c23)c1	IC50	≤ 1000 nM
CC(CO)CN(C)c1ncnc2[nH]cc(-c3cccc(Cl)c3)c12 (centres unmarked)	IC50	≥ 2000 nM
CNC1CCN(c2ncnc3[nH]cc(-c4cccc(Cl)c4)c23)CC1	IC50	≥ 2000 nM
OCCCNc1ncnc2[nH]cc(-c3cccc(Cl)c3)c12	IC50	≥ 2000 nM

* * *

test_target: UniProt Q13188
assay_remarks: ADP-Glo kinase assay, STK3
Assay type: biochemical
run_parameters: ADP-Glo, 50 μM ATP; read-out: STK3 IC50
pIC50: −log10 of the molar value.

compound	test_target	pIC50
CN(CCO)c1ncnc2[nH]cc(-c3cccc(Cl)c3)c12 [Compound 108]	UniProt Q13188	> 6.00
C=CC(=O)Cc1nc(N2CCOCC2)c2c(-c3cccc(Cl)c3)c[nH]c2n1 [Compound 97]	UniProt Q13188	< 5.30
Clc1ccc(-c2c[nH]c3ncnc(N4CCOCC4)c23)cc1 [Compound 25]	UniProt Q13188	> 6.00
Cc1ccccc1-c1c[nH]c2ncnc(N3CCOCC3)c12 [Compound 2]	UniProt Q13188	< 5.30
Clc1cccc(-c2c[nH]c3ccnc(N4CCOCC4)c23)c1 [Compound 22]	UniProt Q13188	< 5.30
CCCCNc1ncnc2[nH]cc(-c3cccc(Cl)c3)c12 [Compound 116]	UniProt Q13188	> 6.00
Clc1cccc(-c2c[nH]c3ncnc(N4CCN(c5ccccc5)CC4)c23)c1 [Compound 89]	UniProt Q13188	< 5.30
NS(=O)(=O)c1ccc(Nc2nc(N3CCOCC3)c3c(-c4cccc(Cl)c4)c[nH]c3n2)cc1 [Compound 96]	UniProt Q13188	5.30 to 6.00
CCN(CC)c1ncnc2[nH]cc(-c3cccc(Cl)c3)c12 [Compound 51]	UniProt Q13188	> 6.00
FC(F)(F)Oc1cccc(-c2c[nH]c3ncnc(N4CCOCC4)c23)c1 [Compound 27]	UniProt Q13188	5.30 to 6.00
COc1ccccc1-c1c[nH]c2ncnc(N3CCOCC3)c12 [Compound 4]	UniProt Q13188	> 6.00
c1coc(-c2c[nH]c3ncnc(N4CCOCC4)c23)c1 [Compound 13]	UniProt Q13188	> 6.00
COCC(C)CN(C)c1ncnc2[nH]cc(-c3cccc(Cl)c3)c12 (stereo not shown) [Compound 122]	UniProt Q13188	5.30 to 6.00
c1nc(N2CCOCC2)c2c(-c3ccoc3)c[nH]c2n1 [Compound 14]	UniProt Q13188	> 6.00
FC(F)(F)Oc1ccc(-c2c[nH]c3ncnc(N4CCOCC4)c23)cc1 [Compound 28]	UniProt Q13188	5.30 to 6.00
Clc1cccc(-c2c[nH]c3ncnc(NCCN4CCOCC4)c23)c1 [Compound 66]	UniProt Q13188	5.30 to 6.00
Clc1cccc(-c2coc3nccc(N4CCOCC4)c23)c1 [Compound 94]	UniProt Q13188	< 5.30
Fc1cccc(-c2c[nH]c3ncnc(N4CCOCC4)c23)c1 [Compound 7]	UniProt Q13188	> 6.00
Clc1cccc(-c2c[nH]c3ncnc(NCCC(c4ccccc4)c4ccccc4)c23)c1 [Compound 88]	UniProt Q13188	< 5.30
c1ccc(-c2c[nH]c3ncnc(N4CCOCC4)c23)cc1 [Compound 1]	UniProt Q13188	> 6.00
Clc1cccc(-c2c[nH]c3ncnc(NCC4CCOCC4)c23)c1 [Compound 61]	UniProt Q13188	5.30 to 6.00
CC(=O)NC1CCN(c2ncnc3[nH]cc(-c4cccc(Cl)c4)c23)CC1 [Compound 105]	UniProt Q13188	> 6.00
Cn1cc(-c2cccc(Cl)c2)c2c(N3CCOCC3)ncnc21 [Compound 95]	UniProt Q13188	< 5.30
Clc1cccc(-c2c[nH]c3ncnc(NCc4ccoc4)c23)c1 [Compound 62]	UniProt Q13188	> 6.00
CS(=O)(=O)c1ccc(-c2c[nH]c3ncnc(N4CCOCC4)c23)cc1 [Compound 40]	UniProt Q13188	< 5.30
CC(CO)CN(C)c1ncnc2[nH]cc(-c3cccc(Cl)c3)c12 (stereo not shown) [Compound 121]	UniProt Q13188	> 6.00
Clc1ncccc1-c1c[nH]c2ncnc(N3CCOCC3)c12 [Compound 34]	UniProt Q13188	< 5.30
CC1CCN(c2ncnc3[nH]cc(-c4cccc(Cl)c4)c23)CC1 [Compound 109]	UniProt Q13188	> 6.00
CNS(=O)(=O)c1ccc(Nc2nc(N3CCOCC3)c3c(-c4cccc(Cl)c4)c[nH]c3n2)cc1 [Compound 98]	UniProt Q13188	> 6.00
Clc1ccccc1-c1c[nH]c2ncnc(N3CCOCC3)c12 [Compound 24]	UniProt Q13188	5.30 to 6.00
Clc1cccc(-c2c[nH]c3ncnc(N4CCC(N5CCCCC5)CC4)c23)c1 [Compound 81]	UniProt Q13188	< 5.30
FC(F)(F)CNc1ncnc2[nH]cc(-c3cccc(Cl)c3)c12 [Compound 55]	UniProt Q13188	5.30 to 6.00
CC(CNc1ncnc2[nH]cc(-c3cccc(Cl)c3)c12)C(N)=O (stereo not shown) [Compound 125]	UniProt Q13188	> 6.00
CN(C)CCNc1ncnc2[nH]cc(-c3cccc(Cl)c3)c12 [Compound 57]	UniProt Q13188	< 5.30
N#Cc1ccc(Nc2nc(N3CCOCC3)c3c(-c4cccc(Cl)c4)c[nH]c3n2)cc1 [Compound 120]	UniProt Q13188	< 5.30
CCNc1ncnc2[nH]cc(-c3cccc(Cl)c3)c12 [Compound 49]	UniProt Q13188	> 6.00
OCCNc1ncnc2[nH]cc(-c3cccc(Cl)c3)c12 [Compound 54]	UniProt Q13188	> 6.00

* * *

test_target: STK3 (Homo sapiens (Human))
Sequence (Q13188 whole entry): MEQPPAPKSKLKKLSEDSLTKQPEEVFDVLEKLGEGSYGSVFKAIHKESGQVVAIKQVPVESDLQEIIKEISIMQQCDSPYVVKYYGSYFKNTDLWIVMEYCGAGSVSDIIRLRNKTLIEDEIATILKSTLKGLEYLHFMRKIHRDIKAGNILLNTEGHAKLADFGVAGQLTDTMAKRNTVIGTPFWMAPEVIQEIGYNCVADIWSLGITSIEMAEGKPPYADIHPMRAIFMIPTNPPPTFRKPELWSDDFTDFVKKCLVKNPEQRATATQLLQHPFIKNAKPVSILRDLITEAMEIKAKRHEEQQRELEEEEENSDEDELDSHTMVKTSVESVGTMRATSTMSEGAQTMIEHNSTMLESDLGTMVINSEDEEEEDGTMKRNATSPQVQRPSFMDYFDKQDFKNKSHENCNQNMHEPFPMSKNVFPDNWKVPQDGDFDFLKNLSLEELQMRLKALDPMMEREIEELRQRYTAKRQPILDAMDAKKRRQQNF
assay_remarks: ADP-Glo kinase assay, STK3
Format: biochemical
run_parameters: ADP-Glo, 50 μM ATP; read-out: STK3 IC50
measured_quantity: IC50

input_smiles	measured_quantity	recorded_result
Clc1cccc(-c2c[nH]c3ncnc(N4CCC(Cc5ccccc5)CC4)c23)c1	IC50	> 5000 nM
Clc1cc(-c2c[nH]c3ncnc(N4CCOCC4)c23)ccn1	IC50	1000 to 5000 nM
CC(=O)NC1(C)CCN(c2ncnc3[nH]cc(-c4cccc(Cl)c4)c23)CC1	IC50	1000 to 5000 nM
Fc1ccccc1-c1c[nH]c2ncnc(N3CCOCC3)c12	IC50	< 1000 nM
Clc1cccc(-c2c[nH]c3ncnc(N4CCCCC4)c23)c1	IC50	< 1000 nM

* * *

assay_remarks: Kinetic solubility
Assay type: physicochemical
run_parameters: PBS pH 7.4, pH 7.4, aqueous buffer, kinetic from dmso stock, PBS pH 7.4, read-out: Solubility, Buffer (pH = 7.4)

input_smiles	result_unit	cmp	solubility
NC(=O)c1cccc(-c2c[nH]c3ncnc(N4CCOCC4)c23)c1	µM	=	145
Clc1cccc(-c2c[nH]c3ncnc(N4CCOCC4)c23)c1	µM	=	9.2
Clc1cccc(-c2c[nH]c3nccc(N4CCOCC4)c23)c1	µM	<	0.6
OC1CCN(c2ncnc3[nH]cc(-c4cccc(Cl)c4)c23)CC1	µM	=	189
